Values from ChEMBL document CHEMBL3804790

Molecular target: Mycocyclosin synthase (Mycobacterium tuberculosis, UniProt P9WPP7)
Sequence (P9WPP7 whole entry): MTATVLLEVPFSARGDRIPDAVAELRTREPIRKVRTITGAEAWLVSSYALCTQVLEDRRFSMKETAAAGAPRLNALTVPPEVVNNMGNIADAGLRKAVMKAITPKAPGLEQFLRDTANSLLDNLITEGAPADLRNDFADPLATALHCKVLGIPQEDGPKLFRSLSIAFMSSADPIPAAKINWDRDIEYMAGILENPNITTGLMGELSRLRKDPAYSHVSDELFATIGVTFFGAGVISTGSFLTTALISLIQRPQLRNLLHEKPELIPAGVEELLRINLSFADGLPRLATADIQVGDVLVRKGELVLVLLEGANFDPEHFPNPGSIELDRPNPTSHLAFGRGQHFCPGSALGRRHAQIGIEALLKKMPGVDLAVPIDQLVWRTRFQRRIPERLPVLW
Parameters: species or system C41(DE3)
Settings: read-out: Kd
pKd: −log10 of the molar value.

structure_smiles: Oc1ccc(Nc2[nH]nc(-c3ccc(O)cc3)c2-c2ccc(O)cc2)cc1
pKd: 4.82
//
structure_smiles: Nc1[nH]nc(-c2cccc(F)c2)c1-c1ccc(O)cc1
pKd: 3.60
//
structure_smiles: Oc1ccc(-c2n[nH]c(NCc3ccncc3)c2-c2ccc(O)cc2)cc1
pKd: 3.62

---

Molecular target: Cytochrome P450 2D6 (Homo sapiens, UniProt P10635)
Sequence (P10635 whole entry): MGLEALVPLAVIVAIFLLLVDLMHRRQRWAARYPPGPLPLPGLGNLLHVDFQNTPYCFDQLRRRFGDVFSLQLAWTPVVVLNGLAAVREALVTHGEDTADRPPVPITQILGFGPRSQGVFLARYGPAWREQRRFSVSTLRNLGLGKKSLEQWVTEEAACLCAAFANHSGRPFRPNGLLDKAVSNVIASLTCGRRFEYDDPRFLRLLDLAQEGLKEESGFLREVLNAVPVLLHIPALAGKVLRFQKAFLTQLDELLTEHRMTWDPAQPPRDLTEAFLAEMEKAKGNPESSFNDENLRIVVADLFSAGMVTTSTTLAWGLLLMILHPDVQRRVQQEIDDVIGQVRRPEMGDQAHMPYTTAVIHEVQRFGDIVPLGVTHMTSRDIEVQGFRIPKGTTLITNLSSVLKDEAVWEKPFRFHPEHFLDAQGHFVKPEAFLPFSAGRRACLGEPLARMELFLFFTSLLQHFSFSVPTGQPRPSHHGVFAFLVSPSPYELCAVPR
Assay: Inhibition of CYP2D6 in human liver microsomes using dextromethorphan as substrate by LC-MS/MS analysis
Type: ADME

structure_smiles: Nc1cccc(-c2cccc(-c3cn[nH]c3N)c2)c1
IC50: > 25 µM
--
structure_smiles: Nc1cccc(-c2cccc(-c3c(-c4ccc(O)cc4)n[nH]c3N)c2)c1
IC50: > 25 µM
--
structure_smiles: Oc1ccc(CNc2[nH]nc(-c3ccc(O)cc3)c2-c2ccc(O)cc2)cc1
IC50: > 25 µM

---

The compounds listed here are annotated with their pKd.
Biological target: Mycocyclosin synthase (Mycobacterium tuberculosis)
Parameters: species or system C41(DE3)
pKd: −log10 of the molar value.

structure_smiles: Nc1cccc(-c2cccc(-c3c(-c4ccc(O)cc4)n[nH]c3N)c2)c1
measured_on: Mycocyclosin synthase (Mycobacterium tuberculosis)
pKd: 7.82
//
structure_smiles: Nc1cccc(-c2cccc(-c3cn[nH]c3N)c2)c1
measured_on: Mycocyclosin synthase (Mycobacterium tuberculosis)
pKd: 4.85
//
structure_smiles: Nc1ccc(-c2cccc(-c3cn[nH]c3N)c2)cc1
measured_on: Mycocyclosin synthase (Mycobacterium tuberculosis)
pKd: 3.64
//
structure_smiles: COc1ccc(-c2n[nH]c(N)c2-c2cccc(-c3cccc(N)c3)c2)cc1
measured_on: Mycocyclosin synthase (Mycobacterium tuberculosis)
pKd: 7.47

---

Target: Mycocyclosin synthase (Mycobacterium tuberculosis, UniProt P9WPP7)
Design: species or system C41(DE3)
Details: read-out: Kd

structure_smiles: Nc1cccc(-c2cccc(-c3cn[nH]c3N)c2)c1
units_symbol: µM
Kd: 140
//
structure_smiles: Nc1cccc(-c2cccc(-c3c(-c4ccc(O)cc4)n[nH]c3N)c2)c1
units_symbol: µM
Kd: 0.74
//
structure_smiles: Oc1ccc(-c2n[nH]c(NCc3c[nH]cn3)c2-c2ccc(O)cc2)cc1
units_symbol: µM
Kd: 275
//
structure_smiles: COc1ccc(-c2cn[nH]c2N)cc1-c1cccc(N)c1
units_symbol: µM
Kd: 68
//
structure_smiles: O=C(Nc1[nH]nc(-c2ccc(O)cc2)c1-c1ccc(O)cc1)c1ccc(O)cc1
units_symbol: µM
Kd: 78
//
structure_smiles: Nc1cc(-c2ccc(O)cc2)n[nH]1
units_symbol: µM
Kd: 1300
//
structure_smiles: Oc1ccc(CNc2[nH]nc(-c3ccc(O)cc3)c2-c2ccc(O)cc2)cc1
units_symbol: µM
Kd: 6.3
//
structure_smiles: O=C(Nc1[nH]nc(-c2ccc(O)cc2)c1-c1ccc(O)cc1)c1ccccc1
units_symbol: µM
Kd: 160
//
structure_smiles: NC(=O)c1cc(Cl)ccc1N
units_symbol: µM
Kd: 3400
//
structure_smiles: Oc1ccc(-c2n[nH]c(NCc3cccc4[nH]ncc34)c2-c2ccc(O)cc2)cc1
units_symbol: µM
Kd: 45
//
structure_smiles: Oc1ccc(-c2n[nH]c(NCc3ccsc3)c2-c2ccc(O)cc2)cc1
units_symbol: µM
Kd: 18
//
structure_smiles: Nc1[nH]nc(-c2ccc(O)cc2O)c1-c1ccc(O)cc1
units_symbol: µM
Kd: 181
//
structure_smiles: Nc1[nH]ncc1-c1ccc(O)cc1
units_symbol: µM
Kd: 1870
//
structure_smiles: Nc1cccc(-c2cc(-c3cn[nH]c3N)ccc2OCc2ccccc2)c1
units_symbol: µM
Kd: 28
//
structure_smiles: Cc1ccc2cc(N)ccc2n1
units_symbol: µM
Kd: 400
//
structure_smiles: O=C(Nc1[nH]nc(-c2ccc(O)cc2)c1-c1ccc(O)cc1)c1ccncc1
units_symbol: µM
Kd: 600
//
structure_smiles: Oc1ccc(-c2n[nH]c(NCc3ccco3)c2-c2ccc(O)cc2)cc1
units_symbol: µM
Kd: 24
//
structure_smiles: Oc1ccc(-c2n[nH]c(NCc3ccc(O)c(Br)c3)c2-c2ccc(O)cc2)cc1
units_symbol: µM
Kd: 19
//
structure_smiles: Nc1[nH]nc(-c2cccc(O)c2)c1-c1ccc(O)cc1
units_symbol: µM
Kd: 60
//
structure_smiles: Nc1cccc(Cn2cncn2)c1
units_symbol: µM
Kd: 1600
//
structure_smiles: Nc1[nH]nc(-c2ccc(O)cc2)c1-c1ccc(O)cc1
units_symbol: µM
Kd: 40
//
structure_smiles: Oc1ccc(-c2n[nH]c(NCc3ccc4[nH]ccc4c3)c2-c2ccc(O)cc2)cc1
units_symbol: µM
Kd: 60
//
structure_smiles: Oc1ccc(-n2cncn2)cc1
units_symbol: µM
Kd: 1700
//
structure_smiles: Oc1ccc(Nc2cc(-c3ccc(O)cc3)[nH]n2)cc1
units_symbol: µM
Kd: 10.6

---

pIC50: −log10 of the molar value.
List of pIC50 tested on Cytochrome P450 2C9 (Homo sapiens).
Sequence (P11712 whole entry): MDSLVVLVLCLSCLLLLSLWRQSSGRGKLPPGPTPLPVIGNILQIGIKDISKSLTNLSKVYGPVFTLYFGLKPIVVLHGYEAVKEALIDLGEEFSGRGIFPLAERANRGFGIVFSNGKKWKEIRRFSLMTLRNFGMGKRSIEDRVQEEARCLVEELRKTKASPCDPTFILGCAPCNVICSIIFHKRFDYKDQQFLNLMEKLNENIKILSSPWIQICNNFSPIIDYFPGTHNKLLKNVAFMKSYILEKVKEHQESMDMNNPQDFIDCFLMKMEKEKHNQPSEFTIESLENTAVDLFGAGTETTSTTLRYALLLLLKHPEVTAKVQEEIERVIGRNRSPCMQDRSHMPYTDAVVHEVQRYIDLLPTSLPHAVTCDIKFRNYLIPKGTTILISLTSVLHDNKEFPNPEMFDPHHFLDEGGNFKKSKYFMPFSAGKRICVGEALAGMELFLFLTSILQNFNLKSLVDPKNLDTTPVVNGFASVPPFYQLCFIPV

structure_smiles: Oc1ccc(CNc2[nH]nc(-c3ccc(O)cc3)c2-c2ccc(O)cc2)cc1
pIC50: < 4.60
//
structure_smiles: Nc1cccc(-c2cccc(-c3cn[nH]c3N)c2)c1
pIC50: < 4.60
//
structure_smiles: Nc1cccc(-c2cccc(-c3c(-c4ccc(O)cc4)n[nH]c3N)c2)c1
pIC50: < 4.60

---

Target: Cytochrome P450 3A4 (Homo sapiens, UniProt P08684)
Sequence (P08684 whole entry): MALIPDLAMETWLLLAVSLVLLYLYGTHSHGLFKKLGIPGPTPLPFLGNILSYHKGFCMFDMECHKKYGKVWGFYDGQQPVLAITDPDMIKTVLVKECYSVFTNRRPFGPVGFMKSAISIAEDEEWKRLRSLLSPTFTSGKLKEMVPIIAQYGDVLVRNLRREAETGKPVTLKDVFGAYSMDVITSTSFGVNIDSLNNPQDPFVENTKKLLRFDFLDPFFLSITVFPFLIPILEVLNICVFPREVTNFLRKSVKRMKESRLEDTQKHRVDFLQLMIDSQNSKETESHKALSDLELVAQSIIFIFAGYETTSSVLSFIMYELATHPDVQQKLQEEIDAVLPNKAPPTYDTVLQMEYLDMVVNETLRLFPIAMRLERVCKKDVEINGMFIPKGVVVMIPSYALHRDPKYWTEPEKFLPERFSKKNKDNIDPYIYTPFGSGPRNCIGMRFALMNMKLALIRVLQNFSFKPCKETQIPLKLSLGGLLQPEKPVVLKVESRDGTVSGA

structure_smiles: Nc1cccc(-c2cccc(-c3cn[nH]c3N)c2)c1
IC50: > 25 µM
//
structure_smiles: Oc1ccc(CNc2[nH]nc(-c3ccc(O)cc3)c2-c2ccc(O)cc2)cc1
IC50: > 25 µM
//
structure_smiles: Nc1cccc(-c2cccc(-c3c(-c4ccc(O)cc4)n[nH]c3N)c2)c1
IC50: 11.3 µM

---

Test system: CYP1A (relative to Mycobacterium tuberculosis CYP121)
Experiment: in vitro
Conditions: human, c41(de3)
Description: Selectivity ratio of IC50 for human CYP1A to Kd for Mycobacterium tuberculosis His6-tagged CYP121 expressed in Escherichia coli C41 (DE3) cells

structure_smiles: Nc1cccc(-c2cccc(-c3cn[nH]c3N)c2)c1
measured_on: CYP1A (relative to Mycobacterium tuberculosis CYP121)
selectivity ratio: 0.09

structure_smiles: Nc1cccc(-c2cccc(-c3c(-c4ccc(O)cc4)n[nH]c3N)c2)c1
measured_on: CYP1A (relative to Mycobacterium tuberculosis CYP121)
selectivity ratio: 1430

---

Molecular target: Cytochrome P450 2C19 (Homo sapiens)
Sequence (P33261 whole entry): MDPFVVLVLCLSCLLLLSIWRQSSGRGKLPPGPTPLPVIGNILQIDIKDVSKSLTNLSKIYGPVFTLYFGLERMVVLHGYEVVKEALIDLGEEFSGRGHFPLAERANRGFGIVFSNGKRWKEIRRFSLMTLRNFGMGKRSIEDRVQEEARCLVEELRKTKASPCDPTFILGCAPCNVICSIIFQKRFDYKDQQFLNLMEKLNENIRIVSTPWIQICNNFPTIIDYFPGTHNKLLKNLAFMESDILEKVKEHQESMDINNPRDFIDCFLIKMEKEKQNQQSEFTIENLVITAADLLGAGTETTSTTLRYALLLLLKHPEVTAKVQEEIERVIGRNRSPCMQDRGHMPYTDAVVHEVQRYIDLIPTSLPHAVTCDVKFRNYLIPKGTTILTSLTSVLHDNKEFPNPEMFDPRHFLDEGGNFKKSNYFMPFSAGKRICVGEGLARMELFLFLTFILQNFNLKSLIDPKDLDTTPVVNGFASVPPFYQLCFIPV

structure_smiles: Nc1cccc(-c2cccc(-c3c(-c4ccc(O)cc4)n[nH]c3N)c2)c1
IC50: > 25 µM
//
structure_smiles: Oc1ccc(CNc2[nH]nc(-c3ccc(O)cc3)c2-c2ccc(O)cc2)cc1
IC50: > 25 µM
//
structure_smiles: Nc1cccc(-c2cccc(-c3cn[nH]c3N)c2)c1
IC50: > 25 µM
